assayed.target: Neuropeptide Y receptor type 1 (Homo sapiens, UniProt P25929); also: assay procedure not described here
Sequence (P25929 whole entry): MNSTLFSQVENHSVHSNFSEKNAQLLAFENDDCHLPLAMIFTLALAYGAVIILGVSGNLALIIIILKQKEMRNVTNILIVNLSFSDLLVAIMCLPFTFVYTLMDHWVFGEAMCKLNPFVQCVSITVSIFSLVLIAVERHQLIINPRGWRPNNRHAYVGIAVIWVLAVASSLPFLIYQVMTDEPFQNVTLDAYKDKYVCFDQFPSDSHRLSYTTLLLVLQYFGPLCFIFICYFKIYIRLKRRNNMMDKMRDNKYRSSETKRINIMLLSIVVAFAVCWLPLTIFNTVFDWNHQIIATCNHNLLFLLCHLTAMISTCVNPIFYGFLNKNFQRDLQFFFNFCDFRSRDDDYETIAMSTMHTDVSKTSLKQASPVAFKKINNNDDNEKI
Reported AC50 values follow for various compounds

Request: Item N[C@H](Cc1cc(I)c(Oc2cc(I)c(O)c(I)c2)c(I)c1)C(=O)O [DEXTROTHYROXINE] with Neuropeptide Y receptor type 1 (Homo sapiens, UniProt P25929) - AC50?
Response: > 30 µM

Request: Item CCCCCCOC(=O)CCC(=O)CN [HEXAMINOLEVULINATE] with Neuropeptide Y receptor type 1 (Homo sapiens, UniProt P25929) - AC50?
Response: > 30 µM

* * *

Reported AC50 values follow for various compounds
assayed.target: Alpha-1A adrenergic receptor (Homo sapiens); also: assay procedure not described here
Sequence (P35348 whole entry): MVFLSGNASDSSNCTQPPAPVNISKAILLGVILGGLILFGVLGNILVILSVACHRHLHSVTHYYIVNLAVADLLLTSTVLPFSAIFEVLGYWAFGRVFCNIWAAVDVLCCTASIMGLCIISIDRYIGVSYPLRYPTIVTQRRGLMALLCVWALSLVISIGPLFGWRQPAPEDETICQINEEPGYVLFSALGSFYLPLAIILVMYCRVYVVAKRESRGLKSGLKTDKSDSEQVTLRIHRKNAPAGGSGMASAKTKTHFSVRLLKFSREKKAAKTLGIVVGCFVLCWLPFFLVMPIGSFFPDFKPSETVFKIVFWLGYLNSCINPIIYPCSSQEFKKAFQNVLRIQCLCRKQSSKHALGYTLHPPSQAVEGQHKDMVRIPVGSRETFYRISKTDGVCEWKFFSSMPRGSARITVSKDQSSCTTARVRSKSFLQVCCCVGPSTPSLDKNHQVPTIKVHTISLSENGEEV
Format: functional, cell-based

Past entries and their recorded results:
COc1cccc(N(C)C(=S)Oc2ccc3c(c2)CCCC3)n1 [LIRANAFTATE] : > 30 µM
Cc1ccc(NC(=O)C2(c3ccc4c(c3)OC(F)(F)O4)CC2)nc1-c1cccc(C(=O)O)c1 [LUMACAFTOR] : > 30 µM
CC(/C=C1\SC(=S)N(CC(=O)O)C1=O)=C\c1ccccc1 : > 30 µM
CC1(C)O[C@@H]2C[C@H]3[C@@H]4C[C@H](F)C5=CC(=O)C=C[C@]5(C)[C@H]4[C@@H](O)C[C@]3(C)[C@]2(C(=O)CO)O1 [FLUNISOLIDE] : > 30 µM
O=C(CCCN1CCC2(CC1)C(=O)NCN2c1ccccc1)c1ccc(F)cc1 [SPIPERONE] : 11.8 µM

Request: Please report the recorded AC50 for CC(=O)c1ccc2c(c1)N(CCCN1CCC(CCO)CC1)c1ccccc1S2 [PIPERACETAZINE] .
Response: > 30 µM

Request: Please report the recorded AC50 for CC(C)=CCOc1ccc(/C=C/C(=O)c2ccc(OCC=C(C)C)cc2OCC(=O)O)cc1 [SOFALCONE] .
Response: > 30 µM

Request: Please report the recorded AC50 for Cn1c(=O)c2[nH]cnc2n(C)c1=O [THEOPHYLLINE] .
Response: > 30 µM

Request: Please report the recorded AC50 for [H]/N=C(\N/C(=N/[H])NCCCCCCNC(=N)NC(=N)Nc1ccc(Cl)cc1)Nc1ccc(Cl)cc1 [CHLORHEXIDINE] .
Response: > 30 µM

Request: Please report the recorded AC50 for O=C(O)CSCC(=O)NC1CCSC1=O (stereo not drawn) [ERDOSTEINE] .
Response: > 30 µM

Request: Please report the recorded AC50 for C[C@@H]1CCC[C@H](C)N1NC(=O)c1ccc(Cl)c(S(N)(=O)=O)c1 [CLOPAMIDE] .
Response: > 30 µM

Request: Please report the recorded AC50 for CO/N=C(\C(=O)N[C@@H]1C(=O)N2C(C(=O)O)=C(COC(N)=O)CS[C@H]12)c1ccco1 [CEFUROXIME] .
Response: > 30 µM

Request: Please report the recorded AC50 for CCN(CC)CCOC(=O)c1ccc(N)cc1Cl [CHLOROPROCAINE] .
Response: > 30 µM

Request: Please report the recorded AC50 for CNCC[C@@H](Oc1ccccc1C)c1ccccc1 [ATOMOXETINE] .
Response: > 30 µM

Request: Please report the recorded AC50 for CCC(C)(Oc1ccc(C2(c3ccc(OC(C)(CC)C(=O)O)cc3)CCCCC2)cc1)C(=O)O (stereo not drawn) [CLINOFIBRATE] .
Response: > 30 µM

Request: Please report the recorded AC50 for O=C(CCCN1CCC(n2c(O)nc3ccccc32)CC1)c1ccc(F)cc1 [BENPERIDOL] .
Response: > 30 µM

Request: Please report the recorded AC50 for c1ccc2c(CC3=NCCN3)cccc2c1 [NAPHAZOLINE] .
Response: 0.0006 µM

Request: Please report the recorded AC50 for COc1ccc(Cc2nccc3cc(OC)c(OC)cc23)cc1OC [PAPAVERINE] .
Response: > 30 µM

* * *

Reported AC50 values follow for various compounds
assayed.target: Amine oxidase [flavin-containing] A (Homo sapiens); also: assay procedure not described here
Sequence (P21397 whole entry): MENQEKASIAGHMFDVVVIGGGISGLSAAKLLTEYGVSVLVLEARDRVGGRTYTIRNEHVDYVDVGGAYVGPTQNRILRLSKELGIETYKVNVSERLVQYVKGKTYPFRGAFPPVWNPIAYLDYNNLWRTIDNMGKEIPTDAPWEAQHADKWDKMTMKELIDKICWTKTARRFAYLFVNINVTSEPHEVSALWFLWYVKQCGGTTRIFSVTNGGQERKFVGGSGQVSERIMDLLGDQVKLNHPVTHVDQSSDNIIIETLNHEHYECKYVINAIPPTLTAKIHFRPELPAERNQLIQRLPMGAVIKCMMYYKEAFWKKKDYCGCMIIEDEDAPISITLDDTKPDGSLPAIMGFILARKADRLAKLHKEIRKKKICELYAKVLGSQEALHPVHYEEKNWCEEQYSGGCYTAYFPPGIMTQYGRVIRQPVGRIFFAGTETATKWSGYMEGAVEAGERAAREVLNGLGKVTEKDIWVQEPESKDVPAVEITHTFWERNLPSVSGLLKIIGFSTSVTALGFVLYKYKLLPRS
Assay type: functional

CN1CCN(c2c(F)cc3c(=O)c(C(=O)O)cn4c3c2SCC4)CC1 [RUFLOXACIN] : > 30 µM

Request: Please report the recorded AC50 for CC(C)C[C@H](CN)CC(=O)O [PREGABALIN] .
Response: > 30 µM

Request: Please report the recorded AC50 for Nc1ccn([C@@H]2O[C@H](CO)[C@@H](O)C2(F)F)c(=O)n1 [GEMCITABINE] .
Response: > 10 µM

Request: Please report the recorded AC50 for CCn1cc(C(=O)O)c(=O)c2cc(F)c(N3CCNCC3)nc21 [ENOXACIN] .
Response: > 10 µM

Request: Please report the recorded AC50 for CC(CCc1ccccc1)NC(C)C(O)c1ccc(O)cc1 (stereo not given) [NYLIDRIN] .
Response: > 10 µM

Request: Please report the recorded AC50 for CC(=O)OCC(=O)[C@@]1(O)CC[C@H]2[C@@H]3CCC4=CC(=O)CC[C@]4(C)C3=CC[C@@]21C [ANECORTAVE ACETATE] .
Response: > 10 µM

Request: Please report the recorded AC50 for Clc1ccc2c(c1)C(c1ccccc1)=NCc1nncn1-2 [ESTAZOLAM] .
Response: > 10 µM

Request: Please report the recorded AC50 for Nc1nc(F)nc2c1ncn2[C@@H]1O[C@H](COP(=O)(O)O)[C@@H](O)[C@@H]1O [FLUDARABINE PHOSPHATE] .
Response: > 30 µM

Request: Please report the recorded AC50 for C[C@]12CC[C@H](O)CC1=CC[C@@H]1[C@@H]2CC[C@]2(C)C(c3cccnc3)=CC[C@@H]12 [ABIRATERONE] .
Response: > 10 µM

Request: Please report the recorded AC50 for CO/N=C(\C(=O)N[C@@H]1C(=O)N2C(C(=O)O)=C(COC(N)=O)CS[C@H]12)c1ccco1 [CEFUROXIME] .
Response: > 30 µM

Request: Please report the recorded AC50 for COCCCOc1ccnc(C[S+]([O-])c2nc3ccccc3[nH]2)c1C (stereo not given) [RABEPRAZOLE] .
Response: > 10 µM

Request: Please report the recorded AC50 for Clc1cccc(Cl)c1N=C1NCCN1 [CLONIDINE] .
Response: > 10 µM

Request: Please report the recorded AC50 for NS(=O)(=O)c1cc2c(cc1C(F)(F)F)NC(Cc1ccccc1)NS2(=O)=O (stereo not given) [BENDROFLUMETHIAZIDE] .
Response: > 10 µM

* * *

assayed.target: Alpha-2A adrenergic receptor (Homo sapiens); also: assay procedure not described here
Sequence (P08913 whole entry): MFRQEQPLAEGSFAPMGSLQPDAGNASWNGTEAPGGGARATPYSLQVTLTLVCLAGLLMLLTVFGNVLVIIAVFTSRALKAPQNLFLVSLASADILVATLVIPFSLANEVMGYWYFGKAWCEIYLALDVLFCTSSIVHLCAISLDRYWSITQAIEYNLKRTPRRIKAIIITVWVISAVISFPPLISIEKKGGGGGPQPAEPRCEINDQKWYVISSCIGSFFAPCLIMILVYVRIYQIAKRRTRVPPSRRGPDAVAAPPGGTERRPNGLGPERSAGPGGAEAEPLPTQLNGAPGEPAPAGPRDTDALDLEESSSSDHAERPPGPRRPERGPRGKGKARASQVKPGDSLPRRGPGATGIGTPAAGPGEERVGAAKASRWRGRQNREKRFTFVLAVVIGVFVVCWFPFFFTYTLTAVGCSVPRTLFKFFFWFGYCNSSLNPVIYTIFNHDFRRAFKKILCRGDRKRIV
Type: functional, cell-based
quantity.measured: AC50

Past entries and their recorded results:
CC(=O)S[C@@H]1CC2=CC(=O)CC[C@]2(C)[C@H]2CC[C@@]3(C)[C@@H](CC[C@@]34CCC(=O)O4)[C@H]12 [SPIRONOLACTONE] : > 30 µM
CC[N+]1(C)CCCC(OC(=O)C(O)(c2ccccc2)c2ccccc2)C1 (centres undefined) [PIPENZOLATE] : > 30 µM
CC(C)(C)NC[C@H](O)COc1nsnc1N1CCOCC1 [TIMOLOL] : > 30 µM
CC(=O)/N=c1/sc(S(N)(=O)=O)nn1C [METHAZOLAMIDE] : > 10 µM
CNCC[C@H](Oc1cccc2ccccc12)c1cccs1 [DULOXETINE] : > 10 µM
Cc1ccc(=O)n(-c2ccccc2)c1 [PIRFENIDONE] : > 30 µM

Request: Please report the recorded AC50 for CC(NCCc1ccc(O)cc1)C(O)c1ccc(O)cc1 (centres undefined) [RITODRINE] .
Response: > 30 µM

Request: Please report the recorded AC50 for CC[C@@H](CO)NC(=O)[C@@H]1C=C2c3cccc4[nH]cc(c34)C[C@H]2N(C)C1 [METHYLERGONOVINE] .
Response: > 30 µM

Request: Please report the recorded AC50 for Cc1cccc(N(C)C(=S)Oc2ccc3ccccc3c2)c1 [TOLNAFTATE] .
Response: > 10 µM

Request: Please report the recorded AC50 for C=CC(N)CCC(=O)O (centres undefined) [VIGABATRIN] .
Response: > 10 µM

Request: Please report the recorded AC50 for CO/N=C(\C(=O)N[C@@H]1C(=O)N2C(C(=O)[O-])=C(C[n+]3cccc4c3CCC4)CS[C@H]12)c1csc(N)n1 [CEFPIROME] .
Response: > 30 µM

Request: Please report the recorded AC50 for O=C(CCCN1CCC2(CC1)C(=O)NCN2c1ccccc1)c1ccc(F)cc1 [SPIPERONE] .
Response: 4.5 µM

Request: Please report the recorded AC50 for NS(=O)(=O)c1cc2c(cc1C(F)(F)F)NC(Cc1ccccc1)NS2(=O)=O (centres undefined) [BENDROFLUMETHIAZIDE] .
Response: > 10 µM

Request: Please report the recorded AC50 for COc1cc(OC)c(C(=O)CCCN2CCCC2)c(OC)c1 [BUFLOMEDIL] .
Response: > 30 µM

Request: Please report the recorded AC50 for CCCCC1(CC)C(=O)NC(=O)NC1=O [BUTETHAL] .
Response: > 30 µM
